organism: Rattus norvegicus; test: DrugMatrix - Regimen: Daily Repeat; format: toxicity, organism-based, Sprague-Dawley; parameters: regimen Daily Repeat, gender Male, age 6-8 weeks; conditions: in vivo, po, 120 mg/kg, 72 h, tissue Blood, route oral GAVAGE, dose level High, time 3 day, vehicle 100 % WATER
observedProperty: ABSOLUTE EOSINOPHIL

[
  {
    "compound": "COCCc1ccc(OCC(O)CNC(C)C)cc1 (configuration not stated)",
    "reported": "230 cells/µL"
  },
  {
    "compound": "c1ccc([C@H]2CN3CCSC3=N2)cc1",
    "reported": "0 CELLS/uL"
  }
]

* * *

species on record: Rattus norvegicus; test: DrugMatrix - Regimen: Daily Repeat; assay type: toxicity, organism-based, Sprague-Dawley; parameters: regimen Daily Repeat, gender Male, age 6-8 weeks; details: in vivo, ip, 0 mg/kg, […], tissue Blood, route intraperitoneal, dose level Control, time 14 day, vehicle 100 % SALINE

[
  {
    "substance": "LEAD (II) ACETATE",
    "ABSOLUTE LYMPHOCYTE [cells/µL]": 13500
  }
]

* * *

species on record: Rattus norvegicus; assay: DrugMatrix - Regimen: Daily Repeat; assay type: toxicity, organism-based, Sprague-Dawley; design: regimen Daily Repeat, gender Male, age 6-8 weeks; details: in vivo, ip, 0 mg/kg, 120 h, tissue Blood, route intraperitoneal, dose level Control, time 5 day, vehicle 100 % SALINE
observedProperty: ABSOLUTE EOSINOPHIL (cells/µL)

[
  {
    "substance": "LEAD (II) ACETATE",
    "reported": 110
  }
]

* * *

species: Rattus norvegicus; test: DrugMatrix - Regimen: Daily Repeat; format: toxicity, organism-based, Sprague-Dawley; parameters: regimen Daily Repeat, gender Male, age 6-8 weeks; conditions: in vivo, po, 320 mg/kg, 120 h, tissue Blood, route oral GAVAGE, dose level High, time 5 day, vehicle .5 % CMC

[
  {
    "compound": "C1CCC(C(CC2CCCCN2)C2CCCCC2)CC1 (stereo unspecified) [PERHEXILINE]",
    "ABSOLUTE BASOPHIL (cells/µL)": 50
  }
]

* * *

species: Rattus norvegicus; test: DrugMatrix - Regimen: Daily Repeat; type: toxicity, organism-based, Sprague-Dawley; set-up: regimen Daily Repeat, gender Male, age 6-8 weeks; settings: in vivo, po, 0 mg/kg, 72 h, tissue Blood, route oral GAVAGE, dose level Control, time 3 day, vehicle .5 % CMC
ERYTHROCYTE COUNT reference

[
  {
    "compound": "CCCN1C[C@H](CSC)C[C@@H]2c3cccc4[nH]cc(c34)C[C@H]21 [PERGOLIDE]",
    "unitsLabel": "x10E6/uL",
    "ERYTHROCYTE COUNT": 5.38
  },
  {
    "compound": "Nc1ccn([C@H]2CC[C@@H](CO)O2)c(=O)n1 [ZALCITABINE]",
    "unitsLabel": "x10E6/uL",
    "ERYTHROCYTE COUNT": 7.2
  },
  {
    "compound": "CCCCc1oc2ccccc2c1C(=O)c1cc(I)c(OCCN(CC)CC)c(I)c1 [AMIODARONE]",
    "unitsLabel": "x10E6/uL",
    "ERYTHROCYTE COUNT": 6.19
  },
  {
    "compound": "NC1=NC(=O)C(c2ccccc2)O1 (stereo not given) [PEMOLINE]",
    "unitsLabel": "x10E6/uL",
    "ERYTHROCYTE COUNT": 6.03
  },
  {
    "compound": "COc1nc(C)nc(Cl)c1N=C1NCCN1 [MOXONIDINE]",
    "unitsLabel": "x10E6/uL",
    "ERYTHROCYTE COUNT": 5.45
  }
]

* * *

SODIUM reference
species: Rattus norvegicus; assay: DrugMatrix - Regimen: Daily Repeat; assay type: toxicity, organism-based, Sprague-Dawley; parameters: regimen Daily Repeat, gender Male, age 6-8 weeks; conditions: in vivo, po, 0 mg/kg, 120 h, tissue Plasma, route oral GAVAGE, dose level Control, time 5 day, vehicle 100 % WATER

[
  {
    "compound": "Clc1cccc(Cl)c1N=C1NCCN1",
    "unitsLabel": "MEQ/L",
    "SODIUM": 141.88
  },
  {
    "compound": "CN(C)CCCN1c2ccccc2Sc2ccc(Cl)cc21",
    "unitsLabel": "MEQ/L",
    "SODIUM": 147.1
  },
  {
    "compound": "COc1cc2nc(N3CCN(C(=O)C4COc5ccccc5O4)CC3)nc(N)c2cc1OC (stereo not given)",
    "unitsLabel": "MEQ/L",
    "SODIUM": 145.55
  },
  {
    "compound": "C=CCC1(C(C)CCC)C(=O)NC(=O)NC1=O (stereo not given)",
    "unitsLabel": "MEQ/L",
    "SODIUM": 145
  },
  {
    "compound": "C[C@](N)(Cc1ccc(O)c(O)c1)C(=O)O",
    "unitsLabel": "MEQ/L",
    "SODIUM": 145.17
  }
]

* * *

species: Rattus norvegicus; test: DrugMatrix - Regimen: Daily Repeat; format: toxicity, organism-based, Sprague-Dawley; set-up: regimen Daily Repeat, gender Male, age 6-8 weeks; settings: in vivo, po, 0 mg/kg, 72 h, tissue Plasma, route oral GAVAGE, dose level Control, time 3 day, vehicle .5 % CMC
CREATINE PHOSPHOKINASE reference
observedProperty: CREATINE PHOSPHOKINASE (u/L)

[
  {
    "compound": "Cc1nc2n(c(=O)c1CCN1CCC(c3noc4cc(F)ccc34)CC1)CCCC2 [RISPERIDONE]",
    "observedProperty": "CREATINE PHOSPHOKINASE",
    "reported": 174.33
  },
  {
    "compound": "Cc1ccc2cc3c(ccc4ccccc43)c3c2c1CC3 [3-METHYLCHOLANTHRENE]",
    "observedProperty": "CREATINE PHOSPHOKINASE",
    "reported": 236
  },
  {
    "compound": "CCCCc1oc2ccccc2c1C(=O)c1cc(I)c(OCCN(CC)CC)c(I)c1 [AMIODARONE]",
    "observedProperty": "CREATINE PHOSPHOKINASE",
    "reported": 174.33
  },
  {
    "compound": "CCn1cc(C(=O)O)c(=O)c2cc(F)c(N3CCNCC3)cc21 [NORFLOXACIN]",
    "observedProperty": "CREATINE PHOSPHOKINASE",
    "reported": 258.67
  },
  {
    "compound": "C1CCC(C(CC2CCCCN2)C2CCCCC2)CC1 (configuration not stated) [PERHEXILINE]",
    "observedProperty": "CREATINE PHOSPHOKINASE",
    "reported": 282.33
  },
  {
    "compound": "COc1nc(C)nc(Cl)c1N=C1NCCN1 [MOXONIDINE]",
    "observedProperty": "CREATINE PHOSPHOKINASE",
    "reported": 467.33
  },
  {
    "compound": "CC(C)(C)NC(=O)[C@@H]1C[C@@H]2CCCC[C@@H]2CN1C[C@@H](O)[C@H](Cc1ccccc1)NC(=O)[C@H](CC(N)=O)NC(=O)c1ccc2ccccc2n1",
    "observedProperty": "CREATINE PHOSPHOKINASE",
    "reported": 331.5
  },
  {
    "compound": "CCOP(=S)(OCC)Oc1nc(Cl)c(Cl)cc1Cl [CHLORPYRIFOS]",
    "observedProperty": "CREATINE PHOSPHOKINASE",
    "reported": 325.67
  },
  {
    "compound": "NC1=NC(=O)C(c2ccccc2)O1 (configuration not stated) [PEMOLINE]",
    "observedProperty": "CREATINE PHOSPHOKINASE",
    "reported": 166.83
  },
  {
    "compound": "Cc1ccc(/N=C/N(C)/C=N/c2ccc(C)cc2C)c(C)c1 [AMITRAZ]",
    "observedProperty": "CREATINE PHOSPHOKINASE",
    "reported": 258.67
  },
  {
    "compound": "CCCN1C[C@H](CSC)C[C@@H]2c3cccc4[nH]cc(c34)C[C@H]21 [PERGOLIDE]",
    "observedProperty": "CREATINE PHOSPHOKINASE",
    "reported": 301
  },
  {
    "compound": "CN1CCN(CCCN2c3ccccc3Sc3ccc(Cl)cc32)CC1 [PROCHLORPERAZINE]",
    "observedProperty": "CREATINE PHOSPHOKINASE",
    "reported": 464.83
  },
  {
    "compound": "OCCN(CCO)c1nc(N2CCCCC2)c2nc(N(CCO)CCO)nc(N3CCCCC3)c2n1 [DIPYRIDAMOLE]",
    "observedProperty": "CREATINE PHOSPHOKINASE",
    "reported": 127
  },
  {
    "compound": "CC1CC(OC(=O)C(O)c2ccccc2)CC(C)(C)C1 (configuration not stated) [CYCLANDELATE]",
    "observedProperty": "CREATINE PHOSPHOKINASE",
    "reported": 127
  },
  {
    "compound": "N=C(N)NCCN1CCCCCCC1 [GUANETHIDINE]",
    "observedProperty": "CREATINE PHOSPHOKINASE",
    "reported": 127
  },
  {
    "compound": "O=C(CCCN1CC=C(n2c(=O)[nH]c3ccccc32)CC1)c1ccc(F)cc1 [DROPERIDOL]",
    "observedProperty": "CREATINE PHOSPHOKINASE",
    "reported": 123.5
  },
  {
    "compound": "Nc1ccn([C@H]2CC[C@@H](CO)O2)c(=O)n1 [ZALCITABINE]",
    "observedProperty": "CREATINE PHOSPHOKINASE",
    "reported": 320.83
  }
]
